- ASSAY EXPLANATION: Kinetic aqueous solubility of compound in DMSO by nephelometric analysis
- Format: physicochemical
- CONDITION DESCRIPTION: read-out: Kinetic_solubility
Below, each entry is listed alongside its reported solubility kinetic.

Check out these entries, answers already filled in.
> print(dat)
                                     smiles  measured.attribute  observed
1  CC[C@H]1CC[C@@H](n2c(=O)[nH]c3ccc(N)cc3c2=O)CC1  solubility kinetic  > 350 µM
2  CC(=O)Nc1ccc2[nH]c(=O)n([C@H]3CC[C@@H](C(F)(F)F)CC3)c(=O)c2c1  solubility kinetic    180 µM
3  CC(C)(C)[C@H]1CC[C@@H](n2c(=O)[nH]c3ccc(N)cc3c2=O)CC1  solubility kinetic    240 µM
4  CC(=O)Nc1ccc2[nH]c(=O)n([C@H]3CO[C@@H](C(C)(C)C)OC3)c(=O)c2c1  solubility kinetic  > 270 µM
5  CC(=O)Nc1cnc2[nH]c(=O)n(CCC3CCCCC3)c(=O)c2c1  solubility kinetic     97 µM
6  CC[C@H]1CC[C@@H](n2c(=O)[nH]c3ccc(NC(C)=O)cc3c2=O)CC1  solubility kinetic     73 µM

So, CC(=O)Nc1ccc2[nH]c(=O)n([C@H]3CC[C@H](C(C)(C)C)CC3)c(=O)c2c1 ? Its solubility kinetic was 131 µM

So, CC[C@H]1CC[C@H](n2c(=O)[nH]c3ncc(NC(C)=O)cc3c2=O)CC1 ? Its solubility kinetic was 22 µM

So, CCC[C@H]1CC[C@@H](n2c(=O)[nH]c3ccc(NC(C)=O)cc3c2=O)CC1 ? Its solubility kinetic was 102 µM

###

- ASSAY EXPLANATION: Toxicity in ip dosed BALB/c mouse model of acute chagas disease assessed as maximum tolerated dose
- Format: organism-based
- CONDITION DESCRIPTION: in vivo
MEASURED ATTRIBUTE: MTD (mg/kg)
A number alone suffices; assume mg/kg.

So, CC(C)(C)[C@H]1CC[C@H](n2c(=O)[nH]c3ccc(N)cc3c2=O)CC1 ? Its MTD was 30

###

- ASSAY EXPLANATION: Selectivity ratio, EC50 for cytotoxicity against rat L6 cells to EC50 for antitrypanosomal activity against Trypanosoma cruzi Tulahuen strain C2C4 trypomastigotes infected in rat L6 cells
- Format: toxicity, cell-based
- CONDITION DESCRIPTION: read-out: Ratio EC50
Just a reminder that ties go to condition not met: only selectivity ratio strictly below 60 counts as condition met.

> print(dat)
                               compound  assigned.class
1  COCCn1c(=O)[nH]c2ccc(NC(C)=O)cc2c1=O   condition met

## Task Take the compound CCC[C@H]1CC[C@@H](n2c(=O)[nH]c3ccc(NC(C)=O)cc3c2=O)CC1 and say whether its selectivity ratio is less than 60.
## Result condition not met

## Task Take the compound CC(=O)Nc1ccc2[nH]c(=O)n(C3CCN(C(=O)c4ccccc4)CC3)c(=O)c2c1 and say whether its selectivity ratio is less than 60.
## Result condition met

## Task Take the compound CC(=O)Nc1cnc2[nH]c(=O)n(CCC3CCCCC3)c(=O)c2c1 and say whether its selectivity ratio is less than 60.
## Result condition met

###

- System: Trypanosoma cruzi
- ASSAY EXPLANATION: Antitrypanosomal activity against Trypanosoma cruzi Tulahuen strain C2C4 trypomastigotes infected in rat L6 cells incubated for 96 hrs by photometric method based assay
- Type: functional, organism-based
- CONDITION DESCRIPTION: Tulahuen strain C2C4, L6, 96 h
MEASURED ATTRIBUTE: EC50 (nM)
A number alone suffices; assume nM.

So, CC(C)(C)[C@H]1CC[C@H](n2c(=O)[nH]c3ccc(N)cc3c2=O)CC1 ? Its EC50 was 63

So, CC(=O)Nc1ccc2[nH]c(=O)n([C@H]3CC[C@@H](C(C)C)CC3)c(=O)c2c1 ? Its EC50 was 200

So, CC(=O)Nc1ccc2[nH]c(=O)n(CCC3=CCCCC3)c(=O)c2c1 ? Its EC50 was 2100

So, CC(=O)Nc1ccc2[nH]c(=O)n([C@H]3CC[C@H](OC(C)C)CC3)c(=O)c2c1 ? Its EC50 was 3100

So, CC(=O)Nc1ccc2[nH]c(=O)n(C3CCCC3)c(=O)c2c1 ? Its EC50 was 12000

So, COCCn1c(=O)[nH]c2ccc(NC(C)=O)cc2c1=O ? Its EC50 was 35000

So, CC[C@H]1CC[C@@H](n2c(=O)[nH]c3ccc(N)cc3c2=O)CC1 ? Its EC50 was 330

So, CC[C@H]1CC[C@@H](n2c(=O)[nH]c3ncc(N)cc3c2=O)CC1 ? Its EC50 was 1200

So, CC(C)(C)C(=O)Nc1ccc2[nH]c(=O)n(CCC3CCCCC3)c(=O)c2c1 ? Its EC50 was 7100

So, CC(=O)Nc1ccc2[nH]c(=O)n([C@H]3CC[C@H](C(C)(C)O)CC3)c(=O)c2c1 ? Its EC50 was 139000

So, CC(=O)Nc1ccc2[nH]c(=O)n(CC3CCCCC3)c(=O)c2c1 ? Its EC50 was 2300

So, CC(=O)Nc1ccc2[nH]c(=O)n(C3CCCCC3)c(=O)c2c1 ? Its EC50 was 4200

So, CC(=O)Nc1ccc2[nH]c(=O)n([C@H]3CC[C@H](C(F)(F)F)CC3)c(=O)c2c1 ? Its EC50 was 350

So, CC(=O)Nc1ccc2[nH]c(=O)n(C(CC3CCCCC3)C(N)=O)c(=O)c2c1 (stereo not drawn) ? Its EC50 was 170000

So, CC(=O)Nc1ccc2[nH]c(=O)n([C@H]3CC[C@H](C(C)(C)F)CC3)c(=O)c2c1 ? Its EC50 was 2600

So, CC(=O)Nc1ccc2[nH]c(=O)n(C3CCN(C(=O)OC(C)(C)C)CC3)c(=O)c2c1 ? Its EC50 was 30000

So, CC(=O)Nc1ccc2[nH]c(=O)n(C3CCN(C(=O)c4ccccc4)CC3)c(=O)c2c1 ? Its EC50 was 140000

So, CC(=O)Nc1ccc2[nH]c(=O)n(C3CCCCCC3)c(=O)c2c1 ? Its EC50 was 2100

So, Cc1noc(C)c1-c1ccc2[nH]c(=O)n(CCC3CCCCC3)c(=O)c2c1 ? Its EC50 was 120000

So, CCCCCCn1c(=O)[nH]c2ccc(NC(C)=O)cc2c1=O ? Its EC50 was 2900

So, CC[C@H]1CC[C@H](n2c(=O)[nH]c3ccc(NC(C)=O)cc3c2=O)CC1 ? Its EC50 was 58

So, CC(=O)Nc1ccc2[nH]c(=O)n(CCCC3CCCCC3)c(=O)c2c1 ? Its EC50 was 480

So, CC(=O)Nc1cnc2[nH]c(=O)n([C@H]3CC[C@@H](C(C)(C)C)CC3)c(=O)c2c1 ? Its EC50 was 100
